# Test Protocol: Nitroreductase enzyme assay with CB 1954 as substrate (HPLC)
# Format: biochemical
Quantity Kind: kcat for CB1954 (text)
Put your answer as a value accompanied by its unit after it.

Requested read-out: kcat for CB1954 (text). Entry: YodC: nitroreductase from B. subtilis, SEQ ID NO: 12 (coded for by SEQ ID NO: 11) (protein, listed as Bacillus subtilis) MTNTLDVLKARASVKEYDTNAPISKEELTELLDLATKAPSAWNLQHWHFTVFHSDESKAELLPVAYNQKQIVESSAVVAILGDLKANENGEEVYAELASQGYITDEIKQTLLGQINGAYQSEQFARDSAFLNASLAAMQLMIAAKAKGYDTCAIGGFNKEQFQKQFDISERYVPVMLISIGKAVKPAHQSNRLPLSKVSTWL
58 s⁻¹

Again, but for C. jejuni NfnB: nitroreductase from Campylobacter jejuni, SEQ ID NO: 23 (protein, listed as Campylobacter jejuni) MKKELEIFSTRYSCRNFKNEKLKKEDLNSILEIARLSPSSLGLEPWKFIVVQDEKRKEELSKICNQQKHVKDCAALIIIISRLDFLDYFEEKLRKRDMSETEMQKRLDTYMPFLKSLNQEQKISYAREQAHIALASILYSANALNIASCTIGGFDKEKLDSYLSLDIQKERSSLVVALGYCNDKKNPQKNRFSFDEVVKFI
11.2 s⁻¹
